# key: entry, value: F
# assayProcedure: Oral bioavailability in C57BL/J6 mouse at 10 mg/kg and measured upto 24 hrs by LC-MS/MS analysis
# Assay type: ADME, organism-based
# experimentalContext: in vivo
Dear colleague, please return just the value in %, with no unit written.

These solved cases illustrate the format of a correct answer.
I would be grateful if you could share the reported F for COc1cc(C2CCN(CC3CN(c4ccc5c(c4)C(=O)N(C4CCC(=O)NC4=O)C5=O)C3)CC2)c(C)cc1Nc1ncc(Cl)c(Nc2ccccc2S(=O)(=O)C(C)C)n1 (centres undefined) . 28

I would be grateful if you could share the reported F for COc1cc(C2CCN(CCCC#Cc3cccc4c3CN(C3CCC(=O)NC3=O)C4=O)CC2)c(C)cc1Nc1ncc(Cl)c(Nc2ccccc2S(=O)(=O)C(C)C)n1 (centres undefined) . 9

I would be grateful if you could share the reported F for COc1cc(CCNCCCCCC#Cc2cccc3c2CN(C2CCC(=O)NC2=O)C3=O)c(C)cc1Nc1ncc(Cl)c(Nc2ccccc2S(=O)(=O)C(C)C)n1 (centres undefined) . 0.2

---
I would be grateful if you could share the reported F for CCc1cc2c(cc1N1CCN(CC3CN(c4ccc5c(c4)C(=O)N(C4CCC(=O)NC4=O)C5=O)C3)CC1)C(C)(C)c1[nH]c3cc(C#N)ccc3c1C2=O (centres undefined) . 48

The origin of these recorded values is ChEMBL document CHEMBL5352501.
